Reference source for all entries: patent US20240317847A1

# measured_on: T1, human IL-11 (human, UniProt P20809 22-199)
# T1 sequence: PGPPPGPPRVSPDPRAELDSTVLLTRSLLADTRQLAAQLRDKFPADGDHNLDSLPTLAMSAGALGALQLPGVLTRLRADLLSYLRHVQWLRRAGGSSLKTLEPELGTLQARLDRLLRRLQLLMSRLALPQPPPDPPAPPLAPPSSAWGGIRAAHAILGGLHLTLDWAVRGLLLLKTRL
# experiment_description: cell-based or functional assay
readout_type: RGA Efficacy (%)
Give bare numbers, in %.

{"columns": ["binder", "units_text", "RGA Efficacy (%)"],
 "data": [
  ["TPP-26326 (antibody, V domains shown) VH: EVQLLESGGGLVQPGGSLRLSCAASGFTFSYYGMHWVRQAPGKGLEWVSVISYDGSYKYYADSVKGRFTISRDNSKNTLYLQMNSLRAEDTAVYYCAAGVPDYWGQGTLVTVSS VL: QSVLTQPPSASGTPGQRVTISCTGSSSNIGAGYDVHWYQQLPGTAPKLLIYSNNERPSGVPDRFSGSKSGTSASLAISGLRSEDEADYYCAAWDDSLNGPVFGGGTKLTVL", "%", 72]
]}

Would you be so kind as to report RGA Efficacy (%) for each listed record?
1. TPP-26318 (antibody, V domains shown) VH: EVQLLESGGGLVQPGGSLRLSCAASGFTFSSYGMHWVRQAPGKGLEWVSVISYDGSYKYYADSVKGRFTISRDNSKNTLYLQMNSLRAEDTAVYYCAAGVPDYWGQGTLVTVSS VL: QSVLTQPPSASGTPGQRVTISCTGSSSNIGAGYFVHWYQQLPGTAPKLLIYSNNERPSGVPDRFSGSKSGTSASLAISGLRSEDEADYYCAAWDDSLNGPVFGGGTKLTVL
2. TPP-26292 (antibody, V domains shown) VH: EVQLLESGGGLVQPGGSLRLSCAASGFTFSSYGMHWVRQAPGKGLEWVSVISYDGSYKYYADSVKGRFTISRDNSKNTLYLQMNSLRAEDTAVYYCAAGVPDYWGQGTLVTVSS VL: QSVLTQPPSASGTPGQRVTISCTGSSSNIGAGYDVHWYQQLPGTAPKLLIYSNNERPSGVPDRFSGSKSGTSASLAISGLRSEDEADYYCAAWDESLNGPVFGGGTKLTVL

## Output
1. 45.9
2. 74
